Provenance of the data: patent US20170001990A1

- Study System: Human recombinant carboxy-terminal his-tagged LDHA (amino acids 2-332) (Homo sapiens)
- Run Description: LDHA enzyme inhibition assay (NADH fluorescence)
- Run Parameters: LDHA IC50 (μM), 1 nM LDHA, NADH and pyruvate, stereochemistry of tested sample given
Value Kind: IC50 (µM)

# Compound, Study System, IC50 / µM
rows = [
    ("O=C1CC(c2ccsc2)(c2cccc(Oc3cc(F)cc(CO)c3)n2)NC(=O)C1Sc1ccccc1Cl (single isomer, unassigned) [Example 234]", "Human recombinant carboxy-terminal his-tagged LDHA (amino acids 2-332) (Homo sapiens)", 0.004),
]

a = O=C1CC(c2ccsc2)(c2cccc(Cc3ccc(F)cc3F)n2)NC(=O)C1Sc1ccccc1Cl (stereo not shown)
b = O=C1CC(c2ccsc2)(c2cccc(Oc3ccc(C(F)(F)F)cc3)n2)NC(=O)C1Sc1ccccc1Cl (stereo not shown)
From the recorded data, which exceeds the other in IC50: a or b ? Field: selected label. Fill in the label of the entry you choose.
a
(a: 0.087 µM, b: 0.014 µM)

1 = O=C1CC(c2ccsc2)(c2cccc(Oc3ccc(F)c(F)c3)n2)NC(=O)C1Sc1ccccc1Cl (single isomer, unassigned) [Example 57]
2 = CC(C)(O)CCCOc1cccc(C2(c3ccsc3)CC(=O)C(Sc3ccccc3Cl)C(=O)N2)n1 (single isomer, unassigned) [Example 126]
3 = COCc1ccccc1Oc1cccc(C2(c3ccsc3)CC(=O)C(Sc3ccccc3Cl)C(=O)N2)n1 (stereo not shown) [Example 101]
4 = Cn1ccnc1COc1cccc(C2(c3ccsc3)CC(=O)C(Sc3ccccc3Cl)C(=O)N2)n1 (stereo not shown)
Sort entries by IC50 from minimum to maximum value. Please respond with the labels ordered as the question requires.
4, 3, 1, 2

---

- Study System: Human recombinant carboxy-terminal his-tagged LDHA (amino acids 2-332) (Homo sapiens)
- Run Description: LDHA enzyme inhibition assay (NADH fluorescence)
- Run Parameters: LDHA IC50 (μM), 1 nM LDHA, NADH and pyruvate, stereochemistry of tested sample given
Value Kind: IC50 (µM)

Check out these entries, answers already filled in.
# Compound, Meas Value
rows = [
    ("CN1C(=O)C(Sc2ccccc2Cl)C(=O)CC1(c1ccsc1)c1cccc(Nc2ccc(F)cc2)n1 (stereo not shown)", 0.002),
    ("O=C1CC(c2ccsc2)(c2cccc(Oc3cccc4cnccc34)n2)NC(=O)C1Sc1ccccc1Cl (stereo not shown)", 0.013),
]

I = O=C1CC(c2ccsc2)(c2cccc(OCCC3CCCCC3)n2)NC(=O)C1Sc1ccccc1Cl (single isomer, unassigned) [Example 185]
II = O=C1CC(c2ccsc2)(c2cccc(OCC3CC(F)(F)C3)n2)NC(=O)C1Sc1ccccc1Cl (single isomer, unassigned) [Example 196]
III = O=C1CC(c2ccc(N3CCOCC3)cc2)(c2cccc(OC3CCCCC3)n2)NC(=O)C1Sc1ccccc1Cl (stereo not shown)
Sort entries by IC50 from minimum to maximum value. Please respond with the labels ordered as the question requires.
III, II, I
(III: 0.016 µM, II: 0.036 µM, I: 0.055 µM)

1 = O=C1CC(c2ccsc2)(c2cccc(Cc3ccc(F)c(F)c3)n2)NC(=O)C1Sc1ccccc1Cl (single isomer, unassigned) [Example 256]
2 = O=C1CC(c2ccsc2)(c2cccc(NCc3ccc(F)cc3)n2)NC(=O)C1Sc1ccccc1Cl (single isomer, unassigned) [Example 285]
Look at 1 and 2 . Which one has the lower recorded IC50 number? Field: selected label. Fill in the label of the entry you choose.
2
(2: 0.01 µM, 1: 0.062 µM)

---

- Study System: Human recombinant carboxy-terminal his-tagged LDHA (amino acids 2-332) (Homo sapiens)
- Run Description: LDHA enzyme inhibition assay (NADH fluorescence)
- Run Parameters: LDHA IC50 (μM), 1 nM LDHA, NADH and pyruvate, stereochemistry of tested sample given
Value Kind: IC50 (µM)

# Compound, IC50, µM
records = [
    ("CN1C(=O)C(Sc2ccccc2Cl)C(=O)CC1(c1ccsc1)c1cccc(Oc2ccc(F)cc2)n1 (centres unmarked)", 0.027),
    ("CCC(C)COc1cccc(C2(c3ccsc3)CC(=O)C(Sc3ccccc3Cl)C(=O)N2)n1 (centres unmarked) [Example 164]", 0.009),
    ("O=C1CC(c2ccsc2)(c2cccc(Cc3cc(F)cc(F)c3)n2)NC(=O)C1Sc1ccccc1Cl (centres unmarked) [Example 151]", 0.015),
    ("O=C1CC(c2ccsc2)(c2cccc(Oc3ccccc3-c3cn[nH]c3)n2)NC(=O)C1Sc1ccccc1Cl (centres unmarked)", 0.012),
    ("C[C@@H](CC1CC1)Oc1cccc(C2(c3ccsc3)CC(=O)C(Sc3ccccc3Cl)C(=O)N2)n1 (stereo in doubt)", 0.012),
    ("CC(C)CCOc1cccc(C2(c3ccsc3)CC(=O)C(Sc3ccccc3Cl)C(=O)N2)n1 (single isomer, unassigned) [Example 133]", 0.089),
    ("CC(Oc1cccc(C2(c3ccsc3)CC(=O)C(Sc3ccccc3Cl)C(=O)N2)n1)c1cccc(F)c1 (centres unmarked)", 0.119),
    ("O=C1CC(c2ccsc2)(c2cccc(OCC3CCCO3)n2)NC(=O)C1Sc1ccccc1Cl (single isomer, unassigned) [Example 235]", 0.021),
]

a = O=C1CC(c2ccsc2)(c2cccc(N3CCCc4cccc(O)c43)n2)NC(=O)C1Sc1ccccc1Cl (centres unmarked)
b = O=C1CC(c2ccsc2)(c2cccc(Oc3ccc4ncccc4c3)n2)NC(=O)C1Sc1ccccc1Cl (single isomer, unassigned) [Example 120]
Look at a and b . Which one has the lower recorded IC50 number? Field: selected label. Fill in the label of the entry you choose.
b

a = O=C1CC(c2ccsc2)(c2cccc(Oc3ccc(F)c(Cl)c3)n2)NC(=O)C1Sc1ccccc1Cl (single isomer, unassigned) [Example 83]
b = O=C1CC(c2ccsc2)(c2cccc(OC3CCC(O)C3)n2)NC(=O)C1Sc1ccccc1Cl (single isomer, unassigned) [Example 104]
Look at a and b . Which one has the lower recorded IC50 number? Field: selected label. Fill in the label of the entry you choose.
a
(a: 0.013 µM, b: 0.118 µM)

1 = O=C1CC(c2ccsc2)(c2cccc(Oc3cccc(Cl)c3)n2)NC(=O)C1Sc1ccccc1Cl (centres unmarked)
2 = O=C1CC(c2ccsc2)(c2cccc(Oc3ccc(F)c(C(F)F)c3)n2)NC(=O)C1Sc1ccccc1Cl (centres unmarked) [Example 139]
From the recorded data, which exceeds the other in IC50: 1 or 2 ? Field: selected label. Fill in the label of the entry you choose.
1
(1: 0.037 µM, 2: 0.009 µM)

---

- Study System: Human recombinant carboxy-terminal his-tagged LDHA (amino acids 2-332) (Homo sapiens, UniProt P00338)
- Run Description: LDHA enzyme inhibition assay (NADH fluorescence)
- Run Parameters: LDHA IC50 (μM), 1 nM LDHA, NADH and pyruvate, stereochemistry of tested sample given
Value Kind: IC50 (µM)

# Compound, Unit, IC50
records = [
    ("O=C1CC(c2ccsc2)(c2cccc(OC3CCC(O)C3)n2)NC(=O)C1Sc1ccccc1Cl (single isomer, unassigned) [Example 106]", "µM", 0.732),
    ("COc1cccc(Oc2cccc(C3(c4ccsc4)CC(=O)C(Sc4ccccc4Cl)C(=O)N3)n2)c1 (stereo not shown) [Example 64]", "µM", 0.126),
    ("O=C1CC(c2ccsc2)(c2cccc(NS(=O)(=O)N3CCC3)n2)NC(=O)C1Sc1ccccc1Cl (stereo not shown) [Example 286]", "µM", 0.057),
    ("CCOCCOc1cccc(C2(c3ccsc3)CC(=O)C(Sc3ccccc3Cl)C(=O)N2)n1 (single isomer, unassigned) [Example 200]", "µM", 0.229),
    ("O=C1CC(c2ccsc2)(c2cccc(Cc3cc(F)cc(F)c3)n2)NC(=O)C1Sc1ccccc1Cl (single isomer, unassigned) [Example 129]", "µM", 0.02),
]

1 = O=C1CC(c2ccsc2)(c2cccc(OC3CCCc4c(F)cccc43)n2)NC(=O)C1Sc1ccccc1Cl (stereo not shown) [Example 333]
2 = O=C1CC(c2ccsc2)(c2cccc(Oc3ccc4c(c3)CCC4)n2)NC(=O)C1Sc1ccccc1Cl (stereo not shown) [Example 60]
From the recorded data, which exceeds the other in IC50: 1 or 2 ? Field: selected label. Fill in the label of the entry you choose.
1

---

- Study System: Human recombinant carboxy-terminal his-tagged LDHA (amino acids 2-332) (Homo sapiens)
- Run Description: LDHA enzyme inhibition assay (NADH fluorescence)
- Run Parameters: LDHA IC50 (μM), 1 nM LDHA, NADH and pyruvate, stereochemistry of tested sample given
Value Kind: IC50 (µM)

# Compound, Meas Value
rows = [
    ("O=C1CC(c2ccsc2)(c2cccc(OCC3CC3)n2)NC(=O)C1Sc1ccccc1Cl (single isomer, unassigned) [Example 97]", 0.03),
    ("O=C1CC(c2ccsc2)(c2cccc(OCC3CC(F)(F)C3)n2)NC(=O)C1Sc1ccccc1Cl (single isomer, unassigned) [Example 215]", 0.014),
    ("O=C1CC(c2ccsc2)(c2cccc(Nc3ccc(F)c(F)c3Cl)n2)NC(=O)C1Sc1ccccc1Cl (stereo not shown) [Example 329]", 0.037),
]

P = O=C1CC(c2ccsc2)(c2cccc(CCc3ccc(F)cc3)n2)NC(=O)C1Sc1ccccc1Cl (single isomer, unassigned) [Example 268]
Q = O=C1CC(c2ccsc2)(c2cccc(OC3CCOC3)n2)NC(=O)C1Sc1ccccc1Cl (stereo not shown) [Example 49]
R = O=C1C[C@](c2ccsc2)(c2cccc(Oc3ccc(C(F)(F)F)cc3)n2)NC(=O)C1Sc1ccccc1Cl (stereo partly shown) [Example 330]
S = O=C1CC(c2ccsc2)(c2cccc(NCCC3CC3)n2)NC(=O)C1Sc1ccccc1Cl (stereo not shown) [Example 173]
Parameters: sort_field (IC50), sort_dir (desc). Please respond with the labels ordered as the question requires.
P, S, R, Q
(P: 0.402 µM, S: 0.183 µM, R: 0.041 µM, Q: 0.025 µM)
